- target_or_system: BTK (Homo sapiens)
- Sequence (Q06187 402-655 limits assumed): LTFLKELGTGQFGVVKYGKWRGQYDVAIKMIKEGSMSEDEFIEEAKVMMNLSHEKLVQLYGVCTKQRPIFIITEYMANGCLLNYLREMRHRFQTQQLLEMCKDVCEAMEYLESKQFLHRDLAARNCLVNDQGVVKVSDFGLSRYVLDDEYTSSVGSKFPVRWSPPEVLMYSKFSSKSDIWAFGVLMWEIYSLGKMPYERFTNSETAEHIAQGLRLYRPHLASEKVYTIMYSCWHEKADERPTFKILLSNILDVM
- recorded_conditions: 0.75 uM BTK, […] probe 3l, 15 min preincubation, 10 µM, inhibitor, BTK inhibition (%)
We use 10% as the dividing line for BTK inhibition (%): on or above the line is yes, below is no.

Item O=C1O[C@H]([C@@H](O)CO)C(O)=C1O [PCM-0215215] with BTK inhibition (%) of 10% or above?
no

Item Nc1ccc(S(=O)(=O)Nc2ncccn2)cc1 [PCM-0214831] with BTK inhibition (%) of 10% or above?
yes

Item Cc1ccccc1C(=O)Nc1ccc(C(=O)N2CCCC(N(C)C)c3ccccc32)cc1 (centres unmarked) [PCM-0095424] with BTK inhibition (%) of 10% or above?
yes

Item "C/C(=C\C(=O)OCCCCCCCCC(=O)O)C[C@@H]1OC[C@H](C[C@@H]2O[C@H]2[C@@H](C)[C@H](C)O)[C@@H](O)[C@H]1O" with BTK inhibition (%) of 10% or above?
yes

Item "CC[C@]12C=CCN3CC[C@]4(C(=C(C(=O)OC)C1)Nc1ccccc14)[C@@H]32" with BTK inhibition (%) of 10% or above?
yes

Item C=C[C@]1(C)C[C@@H](OC(=O)CSCCN(CC)CC)[C@]2(C)[C@H](C)CC[C@]3(CCC(=O)[C@H]32)[C@@H](C)[C@@H]1O [PCM-0216045] with BTK inhibition (%) of 10% or above?
no

Item COc1cc(NS(=O)(=O)c2ccc(N)cc2)nc(OC)n1 [PCM-0216005] with BTK inhibition (%) of 10% or above?
no

====

- target_or_system: BTK (Homo sapiens)
- protocol_details: biochemical
- recorded_conditions: read-out: BTK inhibition (%), 0.75 uM BTK, […] probe 3l, 15 min preincubation
Where a SMILES comes first, the peptide text is derived from it.
measured_property: inhibition at 10 µM (%)
Expressed in %, but write only the number.

Please look at this molecule and report its inhibition at 10 µM: Cc1ccc(Sc2ccccc2N2CCNCC2)c(C)c1 [PCM-0095609]
-6.9

Please look at this molecule and report its inhibition at 10 µM: Fc1ccc(Cl)cc1-c1nc(Nc2ccncc2)c2nccnc2n1 [PCM-0215428]
-17

Please look at this molecule and report its inhibition at 10 µM: CCCN=C1S/C(=C\c2ccc(OC[C@H](O)CO)c(Cl)c2)C(=O)N1c1ccccc1C [PCM-0215632]
9

Please look at this molecule and report its inhibition at 10 µM: CC(C)c1ccccc1Cc1cc(C(=O)Nc2ccc(S(=O)(=O)c3ccccc3C(C)(C)C)cc2)c(O)c(O)c1O [PCM-0094924]
54.5

Please look at this molecule and report its inhibition at 10 µM: CC(=O)N1c2ccc(-c3ccc(C(=O)O)cc3)cc2[C@H](Nc2ccc(Cl)cc2)C[C@@H]1C [PCM-0215400]
31.7

Please look at this molecule and report its inhibition at 10 µM: CCOC(=O)C1=C(C)NC(C)=C(C(=O)OCC)C1c1ccccc1/C=C/C(=O)OC(C)(C)C [PCM-0085989]
16.3

Please look at this molecule and report its inhibition at 10 µM: C#C[C@]1(O)C=C[C@H]2[C@@H]3CCC4=CC(=O)CC[C@@H]4[C@H]3CC[C@@]21CC [PCM-0214616]
3.1

Please look at this molecule and report its inhibition at 10 µM: COc1cc2ncnc(Sc3nnc(C)s3)c2cc1OC [PCM-0215288]
5.5

Please look at this molecule and report its inhibition at 10 µM: CCCOC(C(=O)OC1CCN(C)CC1)(c1ccccc1)c1ccccc1 [PCM-0215115]
-24.1

Please look at this molecule and report its inhibition at 10 µM: NNc1nncc2ccccc12 [PCM-0065163]
-0.9

Please look at this molecule and report its inhibition at 10 µM: CCCCCCOC(=O)NC(=N)c1ccc(NCc2nc3cc(C(=O)N(CCC(=O)OCC)c4ccccn4)ccc3n2C)cc1 [PCM-0214664]
-14

Please look at this molecule and report its inhibition at 10 µM: CCCCCCCCCCCCCCCCOc1nc2ccc(C)cc2c(=O)o1 [PCM-0215987]
-28.9

Please look at this molecule and report its inhibition at 10 µM: Cc1c(-c2ccc(O)cc2)n(Cc2ccc(OCCN3CCCCCC3)cc2)c2ccc(O)cc12 [PCM-0095308]
84

Please look at this molecule and report its inhibition at 10 µM: CCCCCCCC/C=C\CCCCCCCCCCCC(=O)O [PCM-0216153]
-64.9

Please look at this molecule and report its inhibition at 10 µM: COC(=O)[C@H](Cc1ccccc1)NC(=O)[C@@H](N)CC(=O)O [PCM-0214708] (H-Asp-Phe-OMe)
6.2

Please look at this molecule and report its inhibition at 10 µM: O=[N+]([O-])c1ccc(Sc2cccc[n+]2[O-])c2nonc12 [PCM-0215705]
73.4

Please look at this molecule and report its inhibition at 10 µM: Nc1nc2n[nH]nc2c(=O)[nH]1 [PCM-0085758]
4.7

Please look at this molecule and report its inhibition at 10 µM: CC(=O)OCC(=O)[C@@]12OC(C)(C)O[C@@H]1C[C@H]1[C@@H]3C[C@H](F)C4=CC(=O)C=C[C@]4(C)[C@@]3(F)[C@@H](O)C[C@@]12C [PCM-0214700]
19.3

Please look at this molecule and report its inhibition at 10 µM: CCN(CC)C(=S)SSC(=S)N(CC)CC [PCM-0064895]
-5.5

Please look at this molecule and report its inhibition at 10 µM: COc1cccc(OC)c1C(=O)OCc1cc(O)ccc1O[C@@H]1O[C@H](CO)[C@@H](O)[C@H](O)[C@H]1O [PCM-0216173]
0

Please look at this molecule and report its inhibition at 10 µM: COc1ccc(-c2cc(=O)c3c(O)cc(O[C@@H]4O[C@H](CO[C@@H]5O[C@@H](C)[C@H](O)[C@@H](O)[C@H]5O)[C@@H](O)[C@H](O)[C@H]4O)cc3o2)cc1O [PCM-0087491]
-5.1

Please look at this molecule and report its inhibition at 10 µM: COc1ccc(NS(=O)(=O)c2sc3ccc(Cl)cc3c2C)cc1N1CCNCC1 [PCM-0095497]
-35

Please look at this molecule and report its inhibition at 10 µM: COc1cccc(-c2cc(F)ccc2[C@H]2Cc3nc(N)nc(C)c3C(=O)N2)n1 [PCM-0215352]
2.3

Please look at this molecule and report its inhibition at 10 µM: O=C(O)C1=C[C@@H](O)[C@@H](O)[C@H](O)C1 [PCM-0094809]
10.1

Please look at this molecule and report its inhibition at 10 µM: Cc1cc(Nc2nc(N[C@@H](C)c3ccc(F)cc3)c(C#N)cc2F)n[nH]1 [PCM-0095250]
99.3

Please look at this molecule and report its inhibition at 10 µM: CNC(=O)c1cc(Oc2ccc3nc(N[C@@H]4CCCC[C@H]4O)sc3c2)ccn1 [PCM-0215436]
-9

Please look at this molecule and report its inhibition at 10 µM: Cc1noc(-c2ccc(CSCCC(=O)O)cc2)c1NC(=O)OC(C)c1ccccc1Cl (centres unmarked) [PCM-0094905]
-21

Please look at this molecule and report its inhibition at 10 µM: CNc1ccc([N+](=O)[O-])c(Nc2ccc3[nH]ncc3c2)n1 [PCM-0215769]
32.4

Please look at this molecule and report its inhibition at 10 µM: COc1cccc(C(N)=O)c1 [PCM-0216109]
2.3

Please look at this molecule and report its inhibition at 10 µM: C=C1/C(=C\C=C2/CCC[C@]3(C)[C@@H]([C@H](C)/C=C/[C@H](C)C(C)C)CC[C@@H]23)C[C@@H](O)C[C@@H]1O [PCM-0214626]
4.1

Please look at this molecule and report its inhibition at 10 µM: O=C1O[C@H]2[C@@H]3OC(=O)c4cc(O)c(O)c(O)c4-c4c(cc(O)c(O)c4O)C(=O)OC[C@H]2O[C@@H](OC(=O)c2cc(O)c(O)c(O)c2)[C@@H]3OC(=O)c2cc(O)c(O)c3c2[C@@H]2C1=CC(=O)[C@](O)(O3)C2(O)O [PCM-0216302]
0

Please look at this molecule and report its inhibition at 10 µM: CN1C(=O)CCS(=O)(=O)C1c1ccc(Cl)cc1 (centres unmarked) [PCM-0065261]
-14
